- System: S. pneumoniae
- assayProcedure: MIC, broth microdilution
- Type: cell-based, Streptococcus pneumoniae
- conditions: S. pneumoniae ATCC49619
property: MIC (mg/L)
I only need the number, in mg/L, no unit after it.

molecule	MIC, mg/L
CC[C@H]1OC(=O)[C@H](C)[C@@H](O[C@H]2C[C@@](C)(OC)[C@@H](O)[C@H](C)O2)[C@H](C)[C@@H](O[C@@H]2O[C@H](C)C[C@H](N(C)C)[C@H]2O)[C@](C)(O)C[C@@H](C)C(=O)[C@H](C)[C@@H](O)[C@]1(C)O [erythromycin, reference compound]	0.03

## Input // lookup MIC for CC[C@H]1OC(=O)[C@H](C)C(=O)[C@H](C)[C@@H](O[C@@H]2O[C@H](C)C[C@H](N(C)C)[C@H]2O)[C@](C)(OC)C[C@@H](C)C(=O)[C@H](C)[C@H]2N(CCCCn3cnc(-c4cccnc4)c3)C(=O)O[C@]12C [telithromycin, reference compound]
## Output 0.008
